tested on: EIF2AK1; details: concentration: 1 μM,replicates: in singlicate; n = 1;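 note: KINOMEscan kinase panel screen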
For each entry below, report its %Inh value.
A number alone suffices; assume %.

Observed %Inh on EIF2AK1 for COc1cc2nccc(Nc3ccc(Oc4ccccc4)cc3)c2cc1OC.Cl , please.
0

Next entry: O=C1NCCc2[nH]c(-c3ccncc3)cc21
0

Next entry: COC(=O)c1cccc(NC(=O)NC2CCN(c3ccnc(NCc4ccc(F)cc4)n3)CC2)c1
0

Next entry: O=C(NOCC1CC1)c1cc(Br)c(F)c(F)c1Nc1ccc(I)cc1Cl
0

Next entry: Cc1ccc(Nc2ccnc(Nc3ccc4c(c3)CS(=O)(=O)C4)n2)cc1O.Cl
17

Next entry: CC(=O)Nc1nc2cnc(Nc3cc(NC(=O)c4cccc(CC(C)(C)C#N)c4)ccc3C)nc2s1
30

Next entry: COC(=O)Nc1nc2cc(Oc3ccc(NC(=O)Nc4cc(C(F)(F)F)ccc4Cl)cc3)ccc2[nH]1.Cl
0

Next entry: Cn1cc(-c2cccc3c(N)c(C(N)=O)nnc23)cn1
18

Next entry: O=C(Nc1n[nH]c2cc(-c3ccco3)ccc12)C1CC1
0

Next entry: CC(=O)Nc1ccc(-c2cc3ncnc(SCC(=O)O)c3s2)cc1
0

Next entry: Nc1nccc(-c2ccc3c(N)n[nH]c3c2)n1
4

Next entry: CCn1c(-c2nonc2N)nc2cncc(Br)c21
0

Next entry: CSc1nccc(-c2c(-c3ccc(F)cc3)ncn2CCCN2CCOCC2)n1.Cl
0

Next entry: Cl.Cl.NC[C@H](CC1CCCCC1)NC(=O)c1ccc(-c2ccnc3[nH]ccc23)s1
0

Next entry: Cc1ccn2nc(-c3ccc(F)cc3)c(-c3ccncc3)c2c1.Cl
8

Next entry: CC(=O)c1c(-c2ccncc2)[nH]c(-c2ccncc2)c1C
17

Next entry: CS(=O)(=O)Nc1ccc(-c2ccnc3[nH]ccc23)cc1
1

Next entry: COc1cccc(C2=C(Nc3cccc(Cl)c3)C(=O)NC2=O)c1
9

Next entry: N#Cc1cccc(C(=O)NC2CCN(c3ccnc(Nc4ccc(F)cc4)n3)C2)c1 (stereo not shown)
0

====

system: SNARK; construct: gene NUAK2; details: concentration: 1 μM,replicates: in singlicate; n = 1
Is %Inh at least 10%? Then 1. If not, -1.

Check if %Inh >= 10% (inclusive). Item: Cn1cc(-c2cccc3c(N)c(C(N)=O)nnc23)cn1
-1

Next entry: Cc1ccc(CC(=O)N2CCc3cc(-c4cn(C)c5ncnc(N)c45)ccc32)cc1
1

Next entry: O=C(Nc1n[nH]c2cc(-c3ccco3)ccc12)C1CC1
1

Next entry: Cl.c1ccc(Oc2ccc(Nc3ccnc4cc(-c5ccc(CN6CCNCC6)o5)ccc34)cc2)nc1
1

Next entry: COc1cc2nccc(Nc3ccc(Oc4ccccc4)cc3)c2cc1OC.Cl
-1

Next entry: Cc1ccc2c(-c3ccnc(Nc4ccc(C(F)(F)F)cc4)n3)cnn2n1
-1

Next entry: Cn1ccc2ncnc(Oc3ccc(NC(=O)Nc4cc(C(C)(C)C)on4)c(Cl)c3)c21
-1

Next entry: COC(=O)c1cccc(NC(=O)NC2CCN(c3ccnc(NCc4ccc(F)cc4)n3)CC2)c1
-1

Next entry: CS(=O)(=O)c1cccc(CNc2nc(Nc3ccc4c(c3)[C@@H]3C[C@@H]4CNC3=O)ncc2C(F)(F)F)c1
1

Next entry: CC(C)S(=O)(=O)N1CCN(Cc2ccc3c(c2)nc(NC(=O)c2ccsc2)n3C[C@H](O)c2ccccc2)CC1
1

Next entry: CCn1c(-c2nonc2N)nc2cncc(Br)c21
1

Next entry: C[C@@H]1CNc2c(sc3ccc4nc(-c5ccncc5)ccc4c23)C(=O)N1
1

Next entry: CC(C)c1nc(-c2cccc(NS(=O)(=O)c3ccccc3)c2)c(-c2ccnc(Nc3ccc4c(c3)CN(C)CC4)n2)s1
1

Next entry: C[C@@H](Oc1cc(-n2cnc3cc(-c4ccncc4)ccc32)sc1C(N)=O)c1ccccc1Cl
1

Next entry: Cl.Cl.NC[C@H](CC1CCCCC1)NC(=O)c1ccc(-c2ccnc3[nH]ccc23)s1
1

Next entry: O=C(Nc1ccc(Oc2ccc3nc(NC(=O)C4CC4)cn3n2)c(F)c1)c1cccn(-c2ccccc2)c1=O
-1

====

For each entry below, report its %Inh value.
system: PLK2; details: concentration: 1 μM,replicates: in singlicate; n = 1
A number alone suffices; assume %.

Fill in the blank: the reported %Inh of CCNCC(Cc1ccccc1)NC(=O)c1cc(Br)c(-c2ccnc3[nH]ccc23)s1.Cl.Cl (centres unmarked) is ____.
30

Next entry: COC(=O)c1cccc(NC(=O)NC2CCN(c3ccnc(Nc4cc(OC)c(OC)c(OC)c4)n3)C2)c1 (centres unmarked)
0

Next entry: CCn1c(-c2nonc2N)nc2cncc(Br)c21
8

Next entry: CCCC(=O)Nc1n[nH]c2ncccc12
7

Next entry: Cc1ccc(CC(=O)N2CCc3cc(-c4cn(C)c5ncnc(N)c45)ccc32)cc1
2

====

tested on: MARK3; details: concentration: 1 μM,replicates: in singlicate; n = 1
Reported Endpoint: %Inh (%)
A number alone suffices; assume %.

Fill in the blank: the reported %Inh of CC(C(=O)NC1CCN(c2ccnc(Nc3ccc(F)cc3)n2)C1)c1ccc(Cl)cc1 (stereo not shown) [GSK1379713] is ____.
0

Next entry: O=C(NOCC1CC1)c1cc(Br)c(F)c(F)c1Nc1ccc(I)cc1Cl
0

Next entry: Cc1cccc(-c2nc(Nc3ccncc3)c3sccc3n2)n1 [GW869641]
20

Next entry: NC(=O)c1ccc(-c2cc3ncnc(SCC(=O)O)c3s2)cc1
0

Next entry: CN1CCN(CCCNc2nccc(-c3c(-c4ccc(F)cc4)nn4cc(C(N)=O)ccc34)n2)CC1 [GW622475]
0

Next entry: CCn1c(-c2nonc2N)nc2cncc(CNC3CCNCC3)c21.Cl [SB-747651]
2

Next entry: CC(=O)Nc1ccc(-c2cc3ncnc(SCC(=O)O)c3s2)cc1
0

Next entry: Cn1cc(-c2cccc3c(N)c(C(N)=O)nnc23)cn1
0

Next entry: CC(=O)c1c(-c2ccncc2)[nH]c(-c2ccncc2)c1C [GW493036]
10

Next entry: COc1cc2c(Nc3ccc(NC(=O)c4ccccc4)cc3)ncnc2cc1OCCCN1CCOCC1 [GSK301329]
0

Next entry: Cn1ccc2ncnc(Oc3ccc(NC(=O)Nc4cccc(C(F)(F)F)c4)c(Cl)c3)c21
0

Next entry: COc1cccc(OC)c1C(=O)Nc1cccc(-c2nn3ccccc3c2-c2ccnc(Nc3cccc(F)c3)n2)c1 [GSK361065]
7

Next entry: CC(C)c1nc(-c2cccc(NS(=O)(=O)c3ccccc3)c2)c(-c2ccnc(Nc3ccc4c(c3)CN(C)CC4)n2)s1 [GSK1649598]
14

Next entry: CCNCC(Cc1ccccc1)NC(=O)c1cc(Br)c(-c2ccnc3[nH]ccc23)s1.Cl.Cl (stereo not shown) [GSK1383280]
69

Next entry: O=c1[nH]cc(-c2ccc(O)cc2)c2sc(-c3ccncc3)cc12 [GSK1033723]
0

Next entry: Cc1nnc(-c2ccc3occ(-c4ccc(S(C)=O)cc4)c3n2)o1 (stereo not shown)
0

Next entry: Cc1ccn2nc(-c3ccc(F)cc3)c(-c3ccncc3)c2c1.Cl [GW457859]
0

Next entry: C[C@@H]1CNc2c(sc3ccc4nc(-c5ccc(O)cc5)ccc4c23)C(=O)N1
17

Next entry: CN(c1ccccc1CNc1nc(Nc2ccc3c(c2)CC(=O)N3)ncc1C(F)(F)F)S(C)(=O)=O
80

Next entry: CCCC(=O)Nc1n[nH]c2ncccc12 [SB-601436]
0

Next entry: O=C(NCC1CC1)c1ccc(-c2cc(C(=O)NC3CC3)ccc2F)cc1 [GW810445]
0

Next entry: C[C@@H](Oc1cc(-n2cnc3ccc(-c4ccncc4)cc32)sc1C(N)=O)c1ccccc1Cl [GSK483724]
0

Next entry: O=C1NCCc2[nH]c(-c3ccncc3)cc21
25

Next entry: O=C(Nc1ccc(Oc2ccc3nc(NC(=O)C4CC4)cn3n2)c(F)c1)c1cccn(-c2ccccc2)c1=O
29

Next entry: COC(=O)c1cccc(NC(=O)NC2CCN(c3ccnc(NCc4ccc(F)cc4)n3)CC2)c1 [GSK1379860]
0

Next entry: COC(=O)Nc1nc2cc(Oc3ccc(NC(=O)Nc4cc(C(F)(F)F)ccc4Cl)cc3)ccc2[nH]1.Cl [GW697465]
0

Next entry: O=C(Nc1cccc(Oc2ccc3nccn3n2)c1)Nc1cccc(C(F)(F)F)c1
0

Next entry: c1ccc(Oc2ccc(Nc3ccnc4ccc(-c5ccccn5)cc34)cc2)cc1 [GW407034]
0

Next entry: O=C(Nc1ccccc1)c1cccc(Oc2ccc3nccn3n2)c1
0

Next entry: Cn1ccc2ncnc(Oc3ccc(NC(=O)Nc4cncc(C(F)(F)F)c4)c(Cl)c3)c21
0

Next entry: COc1cc2nccc(Nc3ccc(Oc4ccccc4)cc3)c2cc1OC.Cl [GI261656]
0

Next entry: O=C(Nc1cccc(C(F)(F)F)c1)c1cccc(Oc2ccc3nccn3n2)c1
9

Next entry: Cl.c1ccc(Oc2ccc(Nc3ccnc4cc(-c5ccc(CN6CCNCC6)o5)ccc34)cc2)nc1 [GW567142]
39

Next entry: COC(=O)c1cccc(NC(=O)NC2CCN(c3ccnc(Nc4cc(OC)c(OC)c(OC)c4)n3)C2)c1 (stereo not shown) [GSK1379767]
0

Next entry: Cl.Nc1n[nH]c2cc(-c3ccccn3)ccc12 [GSK2189892]
10

Next entry: COc1cccc(CNC(=O)NC2CCN(c3ccnc(Nc4cc(OC)c(OC)c(OC)c4)n3)C2)c1 (stereo not shown) [GSK1379765]
0

Next entry: CNC(=O)c1ccccc1Nc1nc(Nc2cccc(CS(C)(=O)=O)c2)ncc1C.O=CO [GSK1520489]
72
